The values you see were collected from PubChem BioAssay (NCI).

- System: ACHN renal
- Protocol Text: NCI tumour cell line growth inhibition, 48 h
Could you label it Satisfied if measured TGI is 7 µM or higher, and Not satisfied otherwise?

Below are worked cases with known answers.
>  <Compound>
O=C1CSC2(CC(/C=C/c3cccc([N+](=O)[O-])c3)=NN2c2cccc(S(=O)(=O)O)c2)N1c1nc2ccccc2s1 (stereo unspecified)

>  <Tgt>
ACHN renal

>  <Class Assignment>
Satisfied

$$$$
>  <Compound>
COC(=O)[C@]1(NC(=O)c2ccccc2)C[C@H]1C=O

>  <Tgt>
ACHN renal

>  <Class Assignment>
Satisfied

$$$$
>  <Compound>
CSc1nc2sc3c(c2c(=O)n1-c1ccc(C(C)C)cc1)CCC(=O)C3

>  <Tgt>
ACHN renal

>  <Class Assignment>
Not satisfied

$$$$
>  <Compound>
Cc1cc(N(CCCNc2ccnc3cc(Cl)ccc23)Cc2ccco2)nc(N2CCN(C)CC2)n1

>  <Tgt>
ACHN renal

>  <Class Assignment>
Not satisfied

$$$$
>  <Compound>
CCOC(=O)C1(C(=O)OCC)[C@@H](c2ccccc2)C2=NO[C@@H]3CCC[C@H]1[C@H]23

>  <Tgt>
ACHN renal

>  <Class Assignment>
Satisfied

$$$$
>  <Compound>
COCCNC(=O)C1C(=O)C(=O)N(CCOC)C1=O (stereo unspecified)

>  <Tgt>
ACHN renal

>  <Class Assignment>
Satisfied

$$$$

Ask | Would you say `COC(=O)c1ccc(S)c(S(=O)(=O)Nc2n[nH]c(N)n2)c1` shows TGI at minimum 7 µM?
Reply | Satisfied

Ask | Would you say Cc1cccc2c3c(sc12)C(c1ccc(Cl)cc1)C(C#N)=C(N)O3 (stereo unspecified) shows TGI at minimum 7 µM?
Reply | Satisfied

Ask | Would you say `NC(=O)C(=CNC(=S)Nc1ccccc1)C(N)=O` shows TGI at minimum 7 µM?
Reply | Satisfied

Ask | Would you say `CCN(CC)CCCCCCNc1cc(OC)cc2cccnc12` shows TGI at minimum 7 µM?
Reply | Not satisfied

Ask | Would you say `C(=N/N(Cc1ccccc1)Cc1ccccc1)/c1ccccc1` shows TGI at minimum 7 µM?
Reply | Satisfied
